In this section we review reported inhibition values for a set of molecules.
biological target: Serine/threonine-protein kinase D1 (Homo sapiens); conditions: at 0.1 µM;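 also: values given as mean inhibition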
Output spec: scalar in %, unitless text.

QUERY: inhibition for Cc1nnc(-c2cccc(-c3ccc(C(=O)NCC4CC4)cc3)c2)o1 ?
RESULT: 4.9

Here is the next item to consider.
QUERY: inhibition for c1cnn2ncc(-c3ccnc(NCCCN4CCOCC4)n3)c2c1 ?
RESULT: 2.81

====

biological target: Receptor tyrosine-protein kinase erbB-4 (Homo sapiens) (UniProt Q15303); conditions: at 0.1 µM;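 also: values are averaged percent inhibition of ERBB4 kinase activity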
Sequence (Q15303 whole entry): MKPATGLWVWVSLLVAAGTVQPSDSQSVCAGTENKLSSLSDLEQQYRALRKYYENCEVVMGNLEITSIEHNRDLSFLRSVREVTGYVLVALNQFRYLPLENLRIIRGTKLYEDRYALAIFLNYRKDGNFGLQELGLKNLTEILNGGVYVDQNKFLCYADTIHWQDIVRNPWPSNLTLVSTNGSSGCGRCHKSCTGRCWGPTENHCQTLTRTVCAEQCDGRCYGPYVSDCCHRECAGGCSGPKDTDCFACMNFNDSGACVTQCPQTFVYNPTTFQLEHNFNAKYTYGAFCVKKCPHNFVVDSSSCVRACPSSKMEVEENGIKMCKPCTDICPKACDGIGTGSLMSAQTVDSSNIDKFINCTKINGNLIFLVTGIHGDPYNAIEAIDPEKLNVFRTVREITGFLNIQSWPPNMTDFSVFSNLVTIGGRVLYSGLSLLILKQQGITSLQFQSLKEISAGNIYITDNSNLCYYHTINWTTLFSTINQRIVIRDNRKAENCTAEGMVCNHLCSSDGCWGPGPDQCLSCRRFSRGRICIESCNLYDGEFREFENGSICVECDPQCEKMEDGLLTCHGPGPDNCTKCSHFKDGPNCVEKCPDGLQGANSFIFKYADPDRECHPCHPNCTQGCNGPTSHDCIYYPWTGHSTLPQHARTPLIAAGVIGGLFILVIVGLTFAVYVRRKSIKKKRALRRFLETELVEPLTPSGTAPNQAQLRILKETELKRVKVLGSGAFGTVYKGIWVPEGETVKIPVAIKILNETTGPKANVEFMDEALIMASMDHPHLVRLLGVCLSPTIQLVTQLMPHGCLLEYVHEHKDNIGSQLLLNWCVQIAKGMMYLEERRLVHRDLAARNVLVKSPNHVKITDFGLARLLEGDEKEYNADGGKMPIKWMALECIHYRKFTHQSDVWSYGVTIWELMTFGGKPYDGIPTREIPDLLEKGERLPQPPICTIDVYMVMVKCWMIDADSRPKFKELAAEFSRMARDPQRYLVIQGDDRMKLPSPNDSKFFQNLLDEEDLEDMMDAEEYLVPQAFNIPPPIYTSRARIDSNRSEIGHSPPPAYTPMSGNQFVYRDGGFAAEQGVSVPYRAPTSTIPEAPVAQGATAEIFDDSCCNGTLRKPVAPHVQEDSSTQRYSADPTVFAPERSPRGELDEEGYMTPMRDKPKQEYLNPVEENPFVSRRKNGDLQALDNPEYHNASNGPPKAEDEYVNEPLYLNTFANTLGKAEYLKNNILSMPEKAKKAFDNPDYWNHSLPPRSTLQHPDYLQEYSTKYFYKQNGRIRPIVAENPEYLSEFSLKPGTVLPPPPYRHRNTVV
OBSERVABLE: inhibition (%)
Output spec: scalar in %, unitless text.

Below, 5 compounds whose answers are already recorded.
QUERY: inhibition for c1ccc(-c2n[nH]cc2-c2ccnc(-c3ccc(OCCn4ccnc4)cc3)c2)nc1 ?
RESULT: -1.46

QUERY: Also need COc1cc(N2CCN(C(C)C)CC2)ccc1Nc1nc(Nc2cccc3ncccc23)c2cc[nH]c2n1 , thanks.
RESULT: -0.3

QUERY: Also need Cc1ccc(-c2cc3c(NC(=O)C4CC4)ncnc3o2)cc1 , thanks.
RESULT: 9.66

QUERY: Also need Nc1nccc(-c2c(-c3ccc(F)cc3)ncn2C2CCNCC2)n1 , thanks.
RESULT: 3.28

QUERY: Also need CCCNc1cccc(-n2ncc3c(N/N=C/c4ccncc4)ncnc32)c1 , thanks.
RESULT: 11.8

Here is the next item to consider.
QUERY: inhibition for O=C1Nc2ccccc2/C1=C1\CCc2cc(O)ccc21 ?
RESULT: 8.95
